These data points were gathered from ChEMBL document CHEMBL5537134.

- Target Entity: [Pyruvate dehydrogenase (acetyl-transferring)] kinase isozyme 1, mitochondrial (Homo sapiens)
- Sequence (Q15118 whole entry): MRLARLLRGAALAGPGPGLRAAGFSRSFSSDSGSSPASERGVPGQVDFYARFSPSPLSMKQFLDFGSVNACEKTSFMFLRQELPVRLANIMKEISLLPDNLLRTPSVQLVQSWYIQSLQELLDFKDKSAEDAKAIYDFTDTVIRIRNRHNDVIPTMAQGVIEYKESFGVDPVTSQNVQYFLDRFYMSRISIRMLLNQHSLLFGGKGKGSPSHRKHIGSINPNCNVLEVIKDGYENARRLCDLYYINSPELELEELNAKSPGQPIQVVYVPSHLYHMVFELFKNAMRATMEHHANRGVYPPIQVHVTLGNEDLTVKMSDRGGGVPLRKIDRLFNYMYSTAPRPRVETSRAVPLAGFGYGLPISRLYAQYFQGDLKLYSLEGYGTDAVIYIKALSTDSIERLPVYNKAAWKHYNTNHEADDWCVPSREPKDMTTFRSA
- Measurement Protocol: Binding affinity to PDK1 (unknown origin) assessed as dissociation constant in presence of 5-((4-chlorophenyl)sulfonamido)-N-(2-hydroxyethyl)-2,4-dimethylbenzenesulfonamide

| Chemical Smiles | U | Kd |
| --- | --- | --- |
| CN(C)C(=O)c1ccc(S(=O)(=O)c2ccc(NC(=O)[C@@](C)(O)C(F)(F)F)c(Cl)c2)cc1 | µM | 8.9 |

====

- Test system: A549
- Measurement Protocol: cells
- Measurement Setup: Homo sapiens
- Description: Anticancer activity against human A549 cells assessed as inhibition of cell growth incubated for 24 to 72 hrs by IncuCyte Zoom live cell imaging analysis
pEC50: −log10 of the molar value.

| Chemical Smiles | pEC50 |
| --- | --- |
| Cc1cc(C)c(S(=O)(=O)NCCO)cc1NS(=O)(=O)c1ccc(Cl)cc1 | 4.97 |
